Listed next: entries and their corresponding Activity.
system: Melanocyte-stimulating hormone receptor (Rana pipiens); experiment: In vitro potency in frog (Rana pipiens) skin assay relative to alpha-MSH
Non-standard residues stand in square brackets, D forms with d. Residues, ends and D or L forms follow the SMILES beside them. Nle = CCCC[C@H](N)C(=O)O
Just the number, please, no unit after it.

Below: 3 compounds and their reported Activity.
CCCC[C@H](NC(=O)[C@H](CO)NC(=O)[C@H](Cc1ccc(O)cc1)NC(=O)[C@H](CO)NC(C)=O)C(=O)N[C@@H](CCC(=O)O)C(=O)N[C@@H](Cc1c[nH]cn1)C(=O)N[C@H](Cc1ccccc1)C(=O)N[C@@H](CCCN=C(N)N)C(=O)N[C@@H](Cc1c[nH]c2ccccc12)C(=O)N[C@@H](CCCCN)C(=O)NCC(=O)N1CCC[C@H]1C(=O)N[C@H](C(N)=O)C(C)C (Ac-SYS[Nle]EH[dF]RWKGPV-NH2): 6
CCCC[C@H](NC(C)=O)C(=O)N[C@@H](CCC(=O)O)C(=O)N[C@@H](Cc1c[nH]cn1)C(=O)N[C@H](Cc1ccccc1)C(=O)N[C@@H](CCCN=C(N)N)C(=O)N[C@@H](Cc1c[nH]c2ccccc12)C(=O)N[C@@H](CCCCN)C(N)=O: 0.2
CCCC[C@H](NC(C)=O)C(=O)N[C@@H](CCC(=O)O)C(=O)N[C@@H](Cc1c[nH]cn1)C(=O)N[C@H](Cc1ccccc1)C(=O)N[C@@H](CCCN=C(N)N)C(=O)N[C@@H](Cc1c[nH]c2ccccc12)C(=O)N[C@@H](CCCCN)C(=O)NCC(=O)N1CCC[C@H]1C(=O)N[C@H](C(N)=O)C(C)C (Ac-[Nle]EH[dF]RWKGPV-NH2): 0.8

Melanocyte-stimulating hormone receptor (Rana pipiens) / Activity / `CCCC[C@H](NC(C)=O)C(=O)N[C@@H](CC(=O)O)C(=O)N[C@@H](Cc1c[nH]cn1)C(=O)N[C@H](Cc1ccccc1)C(=O)N[C@@H](CCCN=C(N)N)C(=O)N[C@@H](Cc1c[nH]c2ccccc12)C(=O)N[C@@H](CN)C(N)=O` : value? 0.2

Lab note: need Activity for CCCC[C@H](NC(=O)[C@H](CO)NC(=O)[C@H](Cc1ccc(O)cc1)NC(=O)[C@H](CO)NC(C)=O)C(=O)N[C@@H](CC(=O)O)C(=O)N[C@@H](Cc1c[nH]cn1)C(=O)N[C@H](Cc1ccccc1)C(=O)N[C@@H](CCCN=C(N)N)C(=O)N[C@@H](Cc1c[nH]c2ccccc12)C(=O)N[C@@H](CCCCN)C(=O)NCC(=O)N1CCC[C@H]1C(=O)N[C@H](C(N)=O)C(C)C (Ac-SYS[Nle]DH[dF]RWKGPV-NH2) on Melanocyte-stimulating hormone receptor (Rana pipiens), anyone have it? 9

Given the entry `CCCC[C@H](NC(C)=O)C(=O)N[C@@H](CC(=O)O)C(=O)N[C@@H](Cc1c[nH]cn1)C(=O)N[C@H](Cc1ccccc1)C(=O)N[C@@H](CCCN=C(N)N)C(=O)N[C@@H](Cc1c[nH]c2ccccc12)C(=O)N[C@@H](CCN)C(N)=O` , what Activity was observed with Melanocyte-stimulating hormone receptor (Rana pipiens)? 0.9

Enter reported Activity observed with Melanocyte-stimulating hormone receptor (Rana pipiens) for `CCCC[C@H](NC(C)=O)C(=O)N[C@@H](CCC(=O)O)C(=O)N[C@@H](Cc1c[nH]cn1)C(=O)N[C@@H](Cc1ccccc1)C(=O)N[C@@H](CCCN=C(N)N)C(=O)N[C@@H](Cc1c[nH]c2ccccc12)C(=O)N[C@@H](CCCCN)C(N)=O` 0.001

Missing value: Activity, Melanocyte-stimulating hormone receptor (Rana pipiens), entry `CCCC[C@H](NC(C)=O)C(=O)N[C@@H](CCC(=O)O)C(=O)N[C@@H](Cc1c[nH]cn1)C(=O)N[C@H](Cc1ccccc1)C(=O)N[C@@H](CCCN=C(N)N)C(=O)N[C@@H](Cc1c[nH]c2ccccc12)C(=O)N[C@@H](CCCN)C(N)=O` . Fill in? 0.6

Value wanted: Activity (Melanocyte-stimulating hormone receptor (Rana pipiens)) of entry `CCCC[C@H](NC(C)=O)C(=O)N[C@@H](CCC(=O)O)C(=O)N[C@@H](Cc1c[nH]cn1)C(=O)N[C@H](Cc1ccccc1)C(=O)N[C@@H](CCCN=C(N)N)C(=O)N[C@@H](Cc1c[nH]c2ccccc12)C(=O)N[C@@H](CCN)C(N)=O` 0.9

Recorded Activity for CCCC[C@H](NC(C)=O)C(=O)N[C@@H](CC(=O)O)C(=O)N[C@@H](Cc1c[nH]cn1)C(=O)N[C@H](Cc1ccccc1)C(=O)N[C@@H](CCCN=C(N)N)C(=O)N[C@@H](Cc1c[nH]c2ccccc12)C(=O)N[C@@H](CCCCN)C(=O)NCC(=O)N1CCC[C@H]1C(=O)N[C@H](C(N)=O)C(C)C (Ac-[Nle]DH[dF]RWKGPV-NH2) with Melanocyte-stimulating hormone receptor (Rana pipiens), please? 1

Lab note: need Activity with Melanocyte-stimulating hormone receptor (Rana pipiens) for entry `CCCC[C@H](NC(C)=O)C(=O)N[C@@H](CC(=O)O)C(=O)N[C@@H](Cc1c[nH]cn1)C(=O)N[C@H](Cc1ccccc1)C(=O)N[C@@H](CCCN=C(N)N)C(=O)N[C@@H](Cc1c[nH]c2ccccc12)C(=O)N[C@@H](CCCN)C(N)=O` , please look it up. 0.9

# returns recorded Activity (system: Melanocyte-stimulating hormone receptor (Rana pipiens)) for `CCCC[C@H](NC(C)=O)C(=O)N[C@@H](CC(=O)O)C(=O)N[C@@H](Cc1c[nH]cn1)C(=O)N[C@H](Cc1ccccc1)C(=O)N[C@@H](CCCN=C(N)N)C(=O)N[C@@H](Cc1c[nH]c2ccccc12)C(=O)NCC(N)=O` 0.1
